Hello, the source for this data is paper doi:10.1101/2021.02.16.431366, in case you need it.

system-tested: T1, CaM agarose resin (UniProt P62157 1-149)
T1 construct: calmodulin coupled to agarose; Immobilised on agarose by the supplier; source: bought: Sigma Aldrich (CaM agarose resin)
test-protocol: pull-down; competition: 0-100 µM TRPV5 peptide added to the CaM agarose pull-down of GFP-TRPV5 lysate; TRPV5 band semi-quantified and fitted (non-linear sigmoidal) against log peptide concentration; Ca2+ concentration not stated
run-parameters: both partners purified
Where no end group is shown, it is not given here.
recorded-metric: IC50 (µM)

1. {Biotin‑C6}-QSSNSHRGWEILRRNTLGHL (TRPV5 distal C-terminal helix; the limits are counted from W702, the residue changed in the printed W702A peptide; also called distal peptide; distal TRPV5 peptide; source: synthetic peptide, bought: EMC microcollections GmbH) [TRPV5 distal helix peptide] | 5.2
